Parameter protein stability index: see the listing below.
B1: FAM116A (parent)
chain: TVHEVDIFRCFCPVFLHSQMLWEL

Variants of: B1
Assay: protein stability index of a GFP-peptide fusion (GPS, HEK-293T) (PSI 1-6); higher = more stable;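 further: lentivirally expressed fusions sorted by FACS into six bins by GFP to DsRed ratio, PSI derived from sequencing read proportions per bin multiplied by bin number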
Settings: c terminus: a fixed tail appended
// no unit string in output, number only

Incoming: Tell me the measured protein stability index of D6W , please.
Outgoing: 3.69

Incoming: Tell me the measured protein stability index of E23S , please.
Outgoing: 2.37

Incoming: Tell me the measured protein stability index of S18L , please.
Outgoing: 2.89

Incoming: Tell me the measured protein stability index of E23Y , please.
Outgoing: 2.38

Incoming: Tell me the measured protein stability index of M20F , please.
Outgoing: 2.05

Incoming: Tell me the measured protein stability index of H3G , please.
Outgoing: 3.96
